tested on: tetA promoter (PtetA)-lacZ reporter in E. coli KM3; assay type: cell-based; conditions: Table 6, reverse repressor hits; anhydrotetracycline
measure-name: relative β-galactosidase activity, inducer atc
Give your answer as a number; write no unit.

Reported relative β-galactosidase activity, inducer atc, molecule L1-33: library L1 reverse repressor hit (SEQ ID NO: 1206-1213) (protein, rSuR L1-33) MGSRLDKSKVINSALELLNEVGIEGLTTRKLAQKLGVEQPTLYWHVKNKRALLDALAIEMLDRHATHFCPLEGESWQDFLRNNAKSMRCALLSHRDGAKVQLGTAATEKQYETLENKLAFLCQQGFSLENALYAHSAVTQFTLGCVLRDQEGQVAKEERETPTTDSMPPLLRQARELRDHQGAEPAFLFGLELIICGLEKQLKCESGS : ____
8.25
